Ref: ChEMBL document CHEMBL1201862

# Tested on: OVCAR-8
# assay_summary: NCI tumour cell line growth inhibition, 48 h
The source made the active and inactive calls. Rule as the data show it: active = GI50 up to about 1.1 µM and inactive = higher.
Allowed answers: 1 (yes) = active, 0 (no) = inactive

Cc1ccccc1/N=N/c1ccc(/N=N/c2c(O)ccc3cc(S(=O)(=O)O)cc(S(=O)(=O)O)c23)c(C)c1 :: 0 (no)
CCOC1OC(=O)c2cc3ccc4c(c3c(-c3ccc5c(c3)OCO5)c21)OCO4 (centres undefined) :: 0 (no)
CC(C)[C@H]1NC(=O)[C@H]2N=C(O[C@@H]2C)[C@@H]2CCCN2C(=O)[C@H](Cc2ccccc2)NC(=O)[C@@H]2CSC(=N2)[C@@H](Cc2ccccc2)NC(=O)[C@@H]2CSC1=N2 :: 0 (no)
Cc1cc(C)nc(NS(=O)(=O)c2ccc(Nc3c4ccccc4nc4c(C(=O)NCCN(C)C)cccc34)cc2)n1 :: 1 (yes)
COc1cc(C(=O)/C=C/c2ccc(OCC#N)cc2)cc(OC)c1OC :: 0 (no)

Ask: Recorded test call requested for CCCCN1C(=O)N(c2ccc(OCC)cc2)C2N(CCCC)C1C(C)(C)C2(C)C (centres undefined)
Reply: 0 (no)

Ask: Recorded test call requested for O=C(CC1(O)C(=O)Nc2c(Cl)ccc(Cl)c21)c1ccc(Cl)cc1 (centres undefined)
Reply: 0 (no)

Ask: Recorded test call requested for "CC(C)(C)NC(=O)/C(=C\Sc1ccccc1)c1ccccc1"
Reply: 0 (no)

Ask: Recorded test call requested for "Cc1cc2c(c(=O)n1C)SCC2"
Reply: 0 (no)

Ask: Recorded test call requested for "CCOC(=O)/C(Cl)=C(\C)Nc1nc2c(ccc3ccccc32)s1"
Reply: 0 (no)

Ask: Recorded test call requested for COC1C=COC2(C)Oc3c(C)c(O)c4c(O)c(c(C5SCCS5)c(O)c4c3C2=O)NC(=O)/C(C)=C\C=CC(C)C(O)C(C)C(O)C(C)C(OC(C)=O)C1C (centres undefined)
Reply: 0 (no)
